# assay-procedure: Cardiotoxicity in dog purkinje fiber assessed as change in action-potential duration at 90% repolarization at basic cycle length of 1 second at 10 uM
# Format: toxicity, tissue-based, Canis lupus familiaris
quantity-kind: Activity (%)
Write the answer as a number in %, unit excluded.

# example entries with known answers
O=C(O)c1ccc(Sc2ccc(CN3CCC(N4C(=O)N(C5CCOCC5)C[C@H]4c4ccccc4)CC3)cn2)cc1 | -6.2
Cc1nc(Oc2ccc(C(=O)O)cc2)ccc1CN1CCC(N2C(=O)N(C3CCOCC3)C[C@H]2c2ccccc2)CC1 | -3.8
Cc1nc(Oc2ccc(C(N)=O)cc2)ccc1CN1CCC(N2C(=O)N(C3CCOCC3)C[C@H]2c2ccccc2)CC1 | 1.8

Please list Activity recorded for the compound Cc1nc(Oc2ccc(C(=O)O)cc2)ccc1CN1CCC(N2C(=O)N(C3CCOCC3)C[C@H]2c2cccc(Cl)c2)CC1
-6.4

###

# assayed-system: Voltage-gated inwardly rectifying potassium channel KCNH2 (Homo sapiens, UniProt Q12809)
# Sequence (Q12809 whole entry): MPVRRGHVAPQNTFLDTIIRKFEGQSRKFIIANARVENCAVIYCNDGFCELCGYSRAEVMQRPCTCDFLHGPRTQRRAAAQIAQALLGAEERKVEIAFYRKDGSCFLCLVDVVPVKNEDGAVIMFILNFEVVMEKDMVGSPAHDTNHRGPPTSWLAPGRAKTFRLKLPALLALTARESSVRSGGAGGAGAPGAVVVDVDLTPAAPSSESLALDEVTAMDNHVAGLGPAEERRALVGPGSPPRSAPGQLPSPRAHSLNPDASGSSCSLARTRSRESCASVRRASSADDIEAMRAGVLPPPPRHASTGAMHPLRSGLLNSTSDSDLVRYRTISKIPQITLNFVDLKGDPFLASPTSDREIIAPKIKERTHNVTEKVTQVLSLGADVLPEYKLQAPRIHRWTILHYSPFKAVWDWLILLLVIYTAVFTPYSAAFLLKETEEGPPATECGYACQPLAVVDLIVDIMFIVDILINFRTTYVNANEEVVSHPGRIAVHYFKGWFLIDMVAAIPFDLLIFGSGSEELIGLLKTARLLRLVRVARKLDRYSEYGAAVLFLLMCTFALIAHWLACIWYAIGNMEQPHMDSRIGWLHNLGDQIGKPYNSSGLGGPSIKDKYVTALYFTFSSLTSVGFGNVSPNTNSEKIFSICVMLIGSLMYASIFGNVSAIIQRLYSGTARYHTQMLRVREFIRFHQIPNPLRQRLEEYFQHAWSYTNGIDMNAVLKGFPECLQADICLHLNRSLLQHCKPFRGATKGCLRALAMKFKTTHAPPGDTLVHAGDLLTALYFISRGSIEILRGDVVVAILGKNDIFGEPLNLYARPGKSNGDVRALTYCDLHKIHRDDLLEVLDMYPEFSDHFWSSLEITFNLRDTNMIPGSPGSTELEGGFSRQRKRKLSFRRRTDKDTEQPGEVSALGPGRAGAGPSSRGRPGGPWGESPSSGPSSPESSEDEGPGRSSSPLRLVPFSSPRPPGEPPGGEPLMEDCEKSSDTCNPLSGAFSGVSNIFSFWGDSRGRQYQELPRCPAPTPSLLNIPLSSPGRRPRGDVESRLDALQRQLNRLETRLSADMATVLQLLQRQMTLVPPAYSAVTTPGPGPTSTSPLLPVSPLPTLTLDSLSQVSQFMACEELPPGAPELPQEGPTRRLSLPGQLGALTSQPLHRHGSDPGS
# assay-procedure: Inhibition of human recombinant ERG expressed in CHO cells by patch-clamp technique relative to control
# Assay type: cell-based
Catalogue of compounds with associated inhibition (INH)
Field format: number, assumed %, no unit text.

Use these answered entries as a reference point.
Cc1cccc([C@@H]2CN(C3CCOCC3)C(=O)N2C2CCN(Cc3ccc(Oc4ccc(C(=O)O)cc4)nc3C)CC2)c1 | 19.2
Cc1nc(Sc2ccc(C(=O)O)cc2)ccc1CN1CCC(N2C(=O)N(C3CCOCC3)C[C@H]2c2ccccc2)CC1 | 17.7

Given Cc1nc(Oc2ccc(C(N)=O)cc2)ccc1CN1CCC(N2C(=O)N(C3CCOCC3)C[C@H]2c2ccccc2)CC1 , report its inhibition (INH) on Voltage-gated inwardly rectifying potassium channel KCNH2 (Homo sapiens, UniProt Q12809).
10

Write down the reported inhibition (INH) (system: Voltage-gated inwardly rectifying potassium channel KCNH2 (Homo sapiens, UniProt Q12809)) of Cc1nc(Oc2ccc(C(=O)O)cc2)ccc1CN1CCC(N2C(=O)N(C3CCOCC3)C[C@H]2c2cccc(F)c2)CC1
2.2

Quote Voltage-gated inwardly rectifying potassium channel KCNH2 (Homo sapiens, UniProt Q12809) inhibition (INH) for entry O=C(O)c1ccc(Sc2ccc(CN3CCC(N4C(=O)N(C5CCOCC5)C[C@H]4c4ccccc4)CC3)cn2)cc1 .
2.1

Look up Voltage-gated inwardly rectifying potassium channel KCNH2 (Homo sapiens, UniProt Q12809) data: inhibition (INH) of Cc1nc(Oc2ccc(C(=O)O)cc2)ccc1CN1CCC(N2C(=O)N(C3CCOCC3)C[C@H]2c2cccc(Cl)c2)CC1 , then report it.
8.4

// output inhibition (INH); input O=C(O)c1ccc(Oc2ccc(CN3CCC(N4C(=O)N(C5CCOCC5)C[C@H]4c4ccccc4)CC3)cc2)cc1 ; system Voltage-gated inwardly rectifying potassium channel KCNH2 (Homo sapiens, UniProt Q12809)
1.9

###

Listing of recorded residual activity by entry.
# assayed-system: C-C chemokine receptor type 7 (Homo sapiens) (UniProt P32248)
# Sequence (P32248 whole entry): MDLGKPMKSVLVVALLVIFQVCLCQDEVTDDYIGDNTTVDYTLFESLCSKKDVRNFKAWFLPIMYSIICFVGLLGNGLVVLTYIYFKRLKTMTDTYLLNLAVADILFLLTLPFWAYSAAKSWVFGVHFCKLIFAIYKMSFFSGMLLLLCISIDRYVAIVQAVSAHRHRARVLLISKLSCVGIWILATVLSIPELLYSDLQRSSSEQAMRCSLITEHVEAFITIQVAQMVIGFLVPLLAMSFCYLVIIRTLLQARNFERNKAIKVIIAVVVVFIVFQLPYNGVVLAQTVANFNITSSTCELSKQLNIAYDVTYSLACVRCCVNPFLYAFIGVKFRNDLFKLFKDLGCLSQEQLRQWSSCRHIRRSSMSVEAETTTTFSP
# assay-procedure: Antagonist activity at CCR7 in human CCRF-CEM cells assessed as inhibition of MIP-3beta-induced calcium flux at 5 uM preincubated for 15 mins by spectrophotometric analysis relative to control
# Assay type: functional, cell-based
# condition-notes: values are per cent of control
// units = %; emit number, no label

Examples with their reported residual activity follow.
O=C(O)c1ccc(Sc2ccc(CN3CCC(N4C(=O)N(C5CCOCC5)C[C@H]4c4ccccc4)CC3)cn2)cc1 | 90.1
Cc1nc(Oc2ccc(C(N)=O)cc2)ccc1CN1CCC(N2C(=O)N(C3CCOCC3)C[C@H]2c2ccccc2)CC1 | 75.5
Cc1nc(Oc2ccc(C(=O)O)cc2)ccc1CN1CCC(N2C(=O)N(C3CCOCC3)C[C@H]2c2cccc(Cl)c2)CC1 | 80.1
CCc1nc(Oc2ccc(C(=O)O)cc2)ccc1CN1CCC(N2C(=O)N(C3CCOCC3)C[C@H]2c2ccccc2)CC1 | 93.6

Kindly consider the entry below.
Given the molecule Cc1nc(Oc2ccc(C(=O)O)cc2)ccc1CN1CCC(N2C(=O)N(C3CCOCC3)C[C@H]2c2ccccc2)CC1 , write its reported residual activity.
83.8
